Recorded Binding (FOI) values for a group of binders are listed next.
Target: T1, human CD3 expressed on cells (Jurkat cells; human primary T cells) (human, UniProt P07766 23-207; P04234 22-171; P09693 23-182)
T1 construct: whole, on cells
T1 sequence (P07766 23-207, chain 1 of 3): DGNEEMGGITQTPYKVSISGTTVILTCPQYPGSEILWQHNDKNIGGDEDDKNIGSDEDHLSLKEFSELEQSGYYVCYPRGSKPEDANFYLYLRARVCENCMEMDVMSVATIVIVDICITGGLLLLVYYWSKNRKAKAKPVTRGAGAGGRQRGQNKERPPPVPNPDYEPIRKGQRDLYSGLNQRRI
T1 sequence (P04234 22-171, chain 2 of 3): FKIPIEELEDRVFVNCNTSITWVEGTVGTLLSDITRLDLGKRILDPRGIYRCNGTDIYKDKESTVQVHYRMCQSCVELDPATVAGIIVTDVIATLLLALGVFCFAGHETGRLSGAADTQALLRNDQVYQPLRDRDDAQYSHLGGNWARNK
T1 sequence (P09693 23-182, chain 3 of 3): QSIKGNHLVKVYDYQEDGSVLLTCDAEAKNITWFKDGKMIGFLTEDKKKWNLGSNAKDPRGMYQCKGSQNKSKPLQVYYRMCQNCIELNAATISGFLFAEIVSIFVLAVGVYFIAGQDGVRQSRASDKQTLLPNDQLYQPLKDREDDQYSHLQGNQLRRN
Experiment: flow cytometry, 25 nM, human primary T cells
Record the value in FOI, omitting the unit from your answer.

binder	numeric_result
mAb 273 (antibody, V domains shown, VH/VL only) VH: EVQLVESGGGLVQPGESLKLSCTASGFTFSVSAIHWVRQASGKGLEWVGRIRSKANSYATAYVASVKGRFTLSRDDSKNTAYLQMNSLKTEDTAVYYCSSYYFVSGTYYNHWGQGTLVTVSS VL: DIQMTQSPSSLSASVGDRVTITCRASQGIRYDLGWYQQKPGRAPKRLIHSVSSLQSGVPSRFSGSGSGTEFTLTISSLQPEDFATYYCLQHNVNPCTFGQGTKLEIK	24.2

Proceeding to the next binder to report its Binding (FOI).
Measured Binding (FOI), mAb 258 (antibody, V domains shown, VH/VL only) VH: EVQLLESGGGLVQPGGSLRLSCAASGFTFSNYAMNWVRQAPGKGLEWVSVISNSGGTRLYVDSVKGRFTISRDNSKNTLYLQMSSLRAADTAVYYCAKDAAAALYYYYFYYMDVWGKGTTVTVSS VL: EIVLTQSPDFQSVTPKEKVTITCRASQSIGSSLHWYQQKPDQSPKLLIKYASQSFSGVPSRFSGSGSGTDFTLTINSLEAEDAATYYCHQSSSLPYTFGQGTKLEIK : 113
